- assay.remarks: A CellTox Green Cytotoxicity Assay to monitor cytotoxicity in HEK293 cells - 40 hour (AID 1224871); note: nearly all actives have a fitted effect of over 45% in size
- condition.context: CellTox Green fluorescence; series mostly up to 76.8 µM
Results filed as inconclusive are left out. The source made the active and inactive calls. Calls come from the whole dose curve; as a rule, active = well fitted activation curve with a large enough effect in the repeat runs; inconclusive = weak or mixed curves; inactive = flat fitted curve, though single readings scatter.
quantity.name: outcome

[[record]]
compound_structure = "CCc1c2c(nc3ccc(OC(=O)N4CCC(N5CCCCC5)CC4)cc13)-c1cc3c(c(=O)n1C2)COC(=O)[C@]3(O)CC"
quantity_name = "outcome"
endpoint_value = "inactive"

[[record]]
compound_structure = "CC#N"
quantity_name = "outcome"
endpoint_value = "inactive"

[[record]]
compound_structure = "COc1ccc(C(=O)c2cccc(O)c2)c(OC)c1"
quantity_name = "outcome"
endpoint_value = "inactive"


* * *

- assay.remarks: qHTS assay to identify small molecule agonists of the estrogen receptor beta (ER-beta) signaling pathway - cell viability counter screen (AID 1259380); note: nearly all actives have a fitted effect of over 30% in size
- condition.context: ER-beta-bla HEK293T viability, CellTiter-Glo luminescence, 16 h; series mostly up to 92.4 µM
Inconclusive results are not listed. The source made the active and inactive calls. Calls come from the whole dose curve; as a rule, active = well fitted cell-killing curve with a large enough effect in the repeat runs; inconclusive = weak or mixed curves, or effect the other way; inactive = flat fitted curve, though single readings scatter.
quantity.name: outcome

[[record]]
compound_structure = "CCCOCCOCCO"
endpoint_value = "inactive"

[[record]]
compound_structure = "C=CC(=O)NCOCC(C)C"
endpoint_value = "inactive"

[[record]]
compound_structure = "CC#N"
endpoint_value = "inactive"


* * *

- system: Nuclear receptor subfamily 1 group I member 2 (Homo sapiens)
- assay.remarks: Human pregnane X receptor (PXR) small molecule agonists, qHTS assay (AID 1346982); note: nearly all actives have a fitted effect of over 35% in size; note: potency is the fitted concentration of half-maximal effect
- condition.context: PXR-Luc HepG2, CYP3A4 luciferase reporter, 24 h; series mostly up to 92.4 µM
Inconclusive results are not listed. Calls of active or inactive are those of the source. Calls come from the whole dose curve; as a rule, active = well fitted activation curve with a large enough effect in the repeat runs; inconclusive = weak or mixed curves; inactive = no such curve, though single readings can be large or run the other way.
quantity.name: Potency

Look over these answered cases.
[[record]]
compound = "C1COCO1"
quantity_name = "Potency"
endpoint_value = "inactive"

[[record]]
compound = "CCCCCCCCSCCO"
quantity_name = "Potency"
endpoint_value = "inactive"

[[record]]
compound = "Cc1ccc(S(=O)(=O)NC2CCCCC2)cc1"
quantity_name = "Potency"
endpoint_value = "27.1 µM (active)"

[[record]]
compound = "CCCCCCOC(=O)C(C)C"
quantity_name = "Potency"
endpoint_value = "inactive"

[[record]]
compound = "N#C/C(=C1\\SCC(c2ccccc2Cl)S1)n1ccnc1 (centres undefined)"
quantity_name = "Potency"
endpoint_value = "26.6 µM (active)"

[[record]]
compound = "CN(C(=O)C(Cl)Cl)c1ccc(OC(=O)c2ccco2)cc1"
quantity_name = "Potency"
endpoint_value = "inactive"

[[record]]
compound = "CC(=O)[C@H]1CC[C@H]2[C@@H]3C=CC4=CC(=O)CC[C@@]4(C)[C@@H]3CC[C@]12C"
quantity_name = "Potency"
endpoint_value = "26.6 µM (active)"

[[record]]
compound = "CCCCOC(=O)CCS"
quantity_name = "Potency"
endpoint_value = "inactive"

[[record]]
compound = "C[N+](C)(C)CCOC(N)=O"
quantity_name = "Potency"
endpoint_value = "inactive"

[[record]]
compound = "COC(=O)Nc1nc2ccc(C(=O)c3cccs3)cc2[nH]1"
quantity_name = "Potency"
endpoint_value = "26.6 µM (active)"


Ask: Return reported Potency; argument: C[Si](NC1CCCCC1)(NC1CCCCC1)NC1CCCCC1
Result: inactive

Ask: Try the compound COC(=O)c1cc(S(N)(=O)=O)ccc1OC
Result: inactive

Ask: Try the compound CCOCCn1c(C2CCN(CCc3ccc(C(C)(C)C(=O)O)cc3)CC2)nc2ccccc21
Result: inactive

Ask: Try the compound COc1cc2ncnc(Nc3ccc(F)c(Cl)c3)c2cc1OCCCN1CCOCC1
Result: inactive

Ask: Try the compound CC(C)OCC1CO1 (centres undefined)
Result: inactive

Ask: Try the compound CC(=O)OCC(=O)[C@H]1CC[C@H]2[C@@H]3CCC4=CC(=O)CC[C@]4(C)[C@H]3CC[C@]12C
Result: inactive

Ask: Try the compound CC1C2CC(CC2C2CCCC(O)C2)C1(C)C (centres undefined)
Result: inactive

Ask: Try the compound NCC1CCCC(CN)C1 (centres undefined)
Result: inactive

Ask: Try the compound CCN(Cc1cccc(S(=O)(=O)O)c1)c1ccc(C(=C2C=CC(=[N+](CC)Cc3cccc(S(=O)(=O)[O-])c3)C=C2)c2ccccc2)cc1
Result: inactive
